target_or_system: 5HT6-human recombinant receptor (Homo sapiens)
Sequence (P50406 whole entry): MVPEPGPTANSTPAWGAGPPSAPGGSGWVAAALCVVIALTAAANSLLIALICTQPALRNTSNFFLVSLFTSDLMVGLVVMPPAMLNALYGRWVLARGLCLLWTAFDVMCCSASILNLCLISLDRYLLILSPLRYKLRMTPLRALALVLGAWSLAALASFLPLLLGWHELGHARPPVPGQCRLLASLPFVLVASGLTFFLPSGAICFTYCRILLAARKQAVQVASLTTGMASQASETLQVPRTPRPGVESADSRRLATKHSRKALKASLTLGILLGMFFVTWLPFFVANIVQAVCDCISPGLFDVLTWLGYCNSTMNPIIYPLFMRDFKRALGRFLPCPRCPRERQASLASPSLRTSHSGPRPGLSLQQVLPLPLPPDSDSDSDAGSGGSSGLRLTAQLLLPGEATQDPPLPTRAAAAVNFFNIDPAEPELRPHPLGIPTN
protocol: Binding to serotonin receptor 5-HT6 ([3H]-LSD radioligand, HEK-293 cell membranes)
condition: [3H]-LSD 2.7 nM, 60 minutes at 37° C., tests in triplicate
Procedure: Binding to Serotonin Receptor 5ht6 Cell membranes of HEK-293 cells expressing the 5HT6-human recombinant receptor were supplied by Receptor Biology. In said membranes the receptor concentration is 2.18 pmol/mg protein and the protein concentration is 9.17 mg/ml. […] The commercial membrane is diluted (1:40 dilution) with the binding buffer: 50 mM Tris-HCl, 10 mM MgCl2, 0.5 mM EDTA (pH 7.4). […] Non-specific binding is determined in the presence of 100 μM of serotonin, Tests were made in triplicate. […]
Could you please report measured pKi for the items listed next?
// field semantics: pKi = negative decimal log of concentration (mol/L)

Ask: Supply measured pKi of O=C1CCc2ccc(NS(=O)(=O)c3c(Cl)nc4sccn34)cc21 [Compound 28] in your reply.
Reply: 8.15

Ask: Please give the documented pKi of CC(C)(C)OC(=O)n1ncc2cc(NS(=O)(=O)c3c(Br)nc4sccn34)ccc21 [Compound 60]
Reply: 8.18

Ask: Return pKi for the following compound: CN(C)c1ccc(NS(=O)(=O)c2c(Cl)nc3sccn23)cc1 [Compound 16]
Reply: 8.06

Ask: Report pKi for O=S(=O)(Nc1ccc2c(c1)CCC2)c1c(Cl)nc2sccn12 [Compound 1]
Reply: 7.95

Ask: Give the reported pKi for this compound. O=S(=O)(Nc1ccc2[nH]ccc2c1)c1c(Br)nc2sccn12 [Compound 36]
Reply: 8.00

Ask: Please report pKi for the following compound: O=S(=O)(Nc1ccc2c(c1)NCC2)c1c(Cl)nc2sccn12 [Compound 34]
Reply: 8.13

Ask: Provide measured pKi value, entry: Cc1nc2cc(NS(=O)(=O)c3c(Cl)nc4sccn34)ccc2s1 [Compound 4]
Reply: 7.84

Ask: // Input: CC(=O)N1CCc2ccc(NS(=O)(=O)c3c(Cl)nc4sccn34)cc21 [Compound 20] . Output its pKi only.
Reply: 7.89

Ask: Identify measured pKi corresponding to O=S(=O)(Nc1ccc2ncsc2c1)c1c(Cl)nc2sccn12 [Compound 3]
Reply: 7.90

// data source = patent US20110105555A1
